Source listed as the nanobody polyreactivity screen of Harvey et al. (2022).

Experiment description: yeast display, Sf9 membrane polyspecificity reagent, FACS + sequencing; frameworks hold sequencing errors

# Primary sequence, polyreactivity (PSR sort gate)
rows = [
    ("QVQLVESVGGLVQAGGSLRLSCAASGSTSSLYAMGWYRQAPGKERELVASITSRGGSTYYAVSVKGRFTISRDNAKNTVYLLMNSLKPEDTAVYYCAADASRPDRWYLWKYYYWGQGTQVTVSS", "high polyreactivity"),
    ("QVQLVESGGGLVQAGGSLRLSCAASGITLVRYAMGWYRQAPGKERELVASIRGTGGSTYYADSVKGRFTISRDNAKNTVYLQMNSLKPEDTAVYYCAAGRYDYWGQGTQVTVSS", "high polyreactivity"),
]

---

Experiment description: yeast display, Sf9 membrane polyspecificity reagent, FACS + sequencing; frameworks hold sequencing errors

# Primary sequence, polyreactivity (PSR sort gate)
measured = [
    ("QVQLVESGGGLFQAGGSLRLSCAASGLTFYVYAMGWYRQAPGKERELVAAITQNGGTTYYADSVKGRFTISRDNAKNTVYLQMNSLKPEDTAVYYCAAGNRSLGGRLYRYYYWGQGTLVTVSS", "high polyreactivity"),
    ("QVQLVESGGGLVQAGGSLRLSCAASGSTFPVNAMGWYRQAPGKERELVAAISSTGTSTYYADSVKGRFTISRDNAKNTVYLQMNSLKPEDTAGYYCAAETWVWGYVLYDYWGQGTQVTVSS", "high polyreactivity"),
    ("QVQLVESGGGLVQAGGSLRLTCAASGFNFWDYAMGWYRQAPGKERELFAAISDSGGDTYYADSVKGRFTISRDNAKNTVYLQMNSLKPEDTAVYYCASDVELWVFRGQQYDYWGQGTQVTVSS", "low polyreactivity"),
    ("QVQLVESGGGLVQAGGSLRLSCAASGRTFYYYGMGWYRQAPGKERELVATISWSGGSTYYADSVKGRFTISRDNAKNTVYLQMNSLKPEDTAVYYSAADGQFLYDHIEVDYWGQATQVTVSS", "low polyreactivity"),
    ("QVQLVESGGGLVQAGGSLRLSCAASGSIVPYNVMGWYRQAPGKERELVAAITRRGGSTYYADSVKGRFTISRDNAKNTVYLQMNSLKPEDSAVYYCAAVPYPRGKGYDYWGQGTQVTVSS", "high polyreactivity"),
    ("QVQLVESGGGLVQAGGSLRLSSAASGSNFSRNTMGWYRQAPGKERELVAAITRGGSTDYADSVKGRFTISRDNAKNTVDLQMNSRKPEDTAVYYCAKKNPGWGKFDYWGQGTQVTVSS", "low polyreactivity"),
    ("QVQLVESGGGLVQAGGSLRLSCAASGSIFKYYTMGGYRQAPGKERELVAAISGSGSRTYYADSVKGRFTISRDNAKNTVYLQMNSLKPEDTAVYYCAAEVKDSFVNAKSYYWGQGTQVTVSS", "high polyreactivity"),
    ("QVQLVESGGGLVQAGGSLRLSCAASGRIFLSYAMGWYRQAPGKEREFVAAITSSGGSTSYADSVKGRFTISRDNAKNTVYLQMNSLKPEDTAVYYCNARAYIFGQLKYDYWGQGTQVTVAS", "low polyreactivity"),
    ("QVQLVESGGGLVQAGGSLRLSCAASGSIFSPNAMGWYRQAPGKERELVASITNGGSTYYADSVKGRFTISRDNAKNTVYLQMNSLKPEDTAVYYCAADHNETGLRVKVYEYDYWGQGTQVTVSS", "low polyreactivity"),
    ("QVQLVESGGRLVQAGGSLRLSCAASGSTFGSYTMGWYRQAPGKERELVAAINWSGGNTYYADSVKGRFTISRDYAKNTVYLQMNSLKPEDTAVYFCAAAYYIYGFEGDYWGHGTQVTVSS", "low polyreactivity"),
    ("QVQLVESGGGLVQAGGSLRLSCAASGRIFTVNAMGWYRQAPGKERELVASITGRGTRTYYADSVKGRFTISRDNAKNTVYLQMNSLKPEDTAVYYCAAAVARVKYDSKGYYWGQGTQVTVSS", "high polyreactivity"),
    ("QVQLVESGGGLVQAGGSLRLSCGASGYIFGYYAMGWYRQAPRKERDLVAAISSSGGSTYYADSVKGRFTISRDHAKNTVYLQMNSLKPEDTAVYYCAAYRWGTHDRLDYWGQGTQVTVSS", "high polyreactivity"),
    ("QVQLVESGGGLVQAGGSLRLSCAASGRTFYLYAMGWYRQAPGKERELVAAINTNGARTYYADSVKGRFTISRDHAKNTVYLQMNSLIPEDTAVYYCNADAYRVIANWIYDYWGQGTQVTVSS", "low polyreactivity"),
    ("QVQLVESGGGLVQAGGSLLLSCAASGNTFYKYTMGWYRQAPGKERELVAVISSSSGSTYYADSVKGRFTISRDNAKNTVYLQMNSLKPEYTAVYYCKKRGWWDLRHYYWGQGTQVTVSS", "low polyreactivity"),
    ("QVQLVESVGGLVQAGGSLRLSCAASGRIFWNYAMGWYRQATGKERELVASISYRGGSTYYADSVKGRFTISRDNAKNTVYLQMNSLKPEDTAVYYCAARTRQARRTDYGYWGQGTQVTVSS", "high polyreactivity"),
    ("QVQLVESGGGIVQAGGSLRLSCASSGSIFYWYAMGWYRQAPGKERELVAAISRSGGSTYYADSVKGRFTISRDNAKNTVYLQMNSLKPEDTAVYYCATELSYRHGYWGQGTQVTVSS", "high polyreactivity"),
    ("QVQLVESGGGLVQAGGSLRLSCAASGFIFSYNAMGWYRQAPGKERELVAAISSSGGTTYYADSVKGRFTISRDKAKNTVYLQMNSLKPEDTAVYYCNKTTHSRTFRYDYWAQGTQVTVSS", "low polyreactivity"),
    ("QVQLVESGGGLVQAGGSLRLSCAASGLTLGDNAMGWSRQAPGNERELVASITNGGSTNYADSVKGRFTISRDNAKNTVYLQMNSLNPEDTAVYYCAVEWTWRSTAYSGGAFDYWGQGTQVTVSS", "low polyreactivity"),
    ("QVQLVESGGGLVQAGGSLRLSCAASGSTFWSYAIGWYRQAPGKERELVATISAGGGSTSYADSVKGRFTISRDNAKNTVYLQMNSLKPEDTAVYYCATGYSDSSRYGGYYKFDYWGQGTQVTVSS", "low polyreactivity"),
    ("QDQLEESGGGIVQAGGSLRLSCAASGSTFQYYAMGWYRQAPGKERELFAAISASVDTKFYADSVKGRFTISRDNAKNTVYLQMNSLKPEDTAFYYCATDWPHWRKVYWFDYWGQGTQVTVSS", "low polyreactivity"),
    ("QVQLVESGGGLVQAGGSLRLICAASGSIFAGNAMGWYRQAPGKERELVAAITWSGGSTYYADSVKGRFTISRDNAKNTVYLQMNSLKPEDTAVYYCAAPTQADVVGYDYWGQGTQVTVSS", "low polyreactivity"),
]
